- experimental-details: Her2 expression decrease, cell viability multiplex – SKBR3 breast tumor cells, AlphaScreen, ATP viability, primary screen (AID 461);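 also: percent of carrier control wells set as 100% viability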
- condition-context: SKBR3 Her2 protein level, 18-24 h, measured here: SKBR3 viability, ATP luminescence, at 10 µM
metric-name: viability

Each of the following entries comes with a recorded value; kindly state viability for each.
1. O=C(NCCCN1CCOCC1)c1cc(-c2ccc(O)cc2)on1
2. CCN(CC)C(=O)c1ccc(CS(=O)(=O)c2ccc(OC)cc2)o1
3. COc1ccc(OC)c(C2C(C(=O)Nc3ccc(F)cc3)=C(C)Nc3nc(CCCO)nn32)c1 (stereo unspecified)
4. CCCOC(=O)c1[nH]c2c(c1C)C(=O)CC(c1cc(OC)c(OC)c(OC)c1)C2 (stereo unspecified)
5. C=CCSc1nc(N)c2c(C)c(C)sc2n1
6. CN1C(=O)C(O)(CC(=O)c2ccc(F)cc2)c2cc(Br)ccc21 (stereo unspecified)

Reply:
100%
84.5%
101%
89%
98.5%
85.5%

====

Provide the recorded growth inhibition for the entries that follow.
- experimental-details: S. cerevisiae growth inhibition in restrictive medium, OD615, pilot screen, restrictive growth control, yeast lifespan reduction project (AID 706);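 also: modified DeaD lifespan yeast strain shifted to restrictive glucose medium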
- condition-context: OD615, 48 h, at 10 µM, stronger effect = higher value
One number for each entry, in %.

The following molecules have reported results that may help.
molecule	u	growth inhibition
COc1cc2c(cc1OC)CN(C(=O)CSc1nc3[nH]ncc3c(=O)n1-c1ccccc1)CC2	%	-24.6
CCOc1ccccc1NC(=O)C1CCCN(S(=O)(=O)c2cccc3cccnc23)C1 (stereo not drawn)	%	-21
Cc1nc2ccccn2c1/C(O)=C1\C(=O)C(=O)N(CCCN(C)C)C1c1ccc(F)cc1 (stereo not drawn)	%	-14
COCCNC(=O)Cn1ncc2ccsc2c1=O	%	5.16
Cc1cc(C)n2nc(SCc3nc4ccccc4[nH]3)nc2n1	%	15.5

Hey, can you go through the list below and give me growth inhibition for every item?
1. COC(=O)c1c(NC(=O)c2nc3ccccc3s2)sc2c1CCN(C(C)=O)C2
2. COc1ccc(NS(=O)(=O)c2coc(C(N)=O)c2)cc1Cl

Reply:
[1.73, -10.9]

Provide each entry's growth inhibition from the list below.
1. COc1ccc(OCCSc2nc3ccccc3n2CC(=O)O)cc1
2. CCN(CC)C(=O)Oc1ccc(NC(C)=O)cc1
3. O=C(NCCN1CCOCC1)c1ccc2c(c1)N(Cc1ccccc1)CCS2
4. COc1ccc(-n2c(SCC(=O)Nc3nccs3)nc3c(c2=O)SCC3)cc1
5. CCN(CC)C(=O)COC(=O)c1ccc(O)cc1
6. O=C(OCN1C(=O)c2ccccc2C1=O)C1CCCCC1
7. COCCSc1nc2c(c(=O)[nH]c(=O)n2C)n1CCC(C)C
8. CCOC(=O)C1CCN(C(=O)CN(c2ccc(OC)cc2)S(=O)(=O)c2c(C)noc2C)CC1

Reply:
1. -5.21
2. -12
3. -3.97
4. -11.5
5. -17.4
6. -9.12
7. -18.9
8. -5.5

Provide reported growth inhibition for each item, in the same order as listed.
1. Cc1cc(N2CCN(C3CCCCC3)CC2)n2nc(C)nc2n1
2. COc1ccc(OC)c(C2=NOC(C(=O)Nc3cc(C)nn3-c3ccccc3)C2)c1 (stereo not drawn)
3. COc1cccc(C2CC(=O)Nc3cc4c(cc32)OCCO4)c1OC(C)C (stereo not drawn)
4. COc1ccc2oc(-c3ccccc3)c(C(N)=O)c2c1
5. CC(=O)c1cccc(NC(=O)CCS(=O)(=O)c2cccc3nonc23)c1

Reply:
[4.13, -4.62, 0.265, 11.4, -7.91]

# per-item lookup of growth inhibition; items listed below
1. Cc1cc(C)nc(NC2=NCC(=O)N2c2ccccc2Br)n1
2. Cc1cc(N2C(=O)CC(Cc3ccccc3)C2=O)no1 (stereo not drawn)
3. CCn1c(C(C#N)/C(=N\S(=O)(=O)c2cccs2)c2ccccc2)nc2ccccc21 (stereo not drawn)

Reply:
1: 4.3; 2: -11.5; 3: -15

Values compiled from PubChem BioAssay.
